- ASSAY NAME: Human HepG2 cell viability assay in 384 well format
- Format: toxicity, cell-based
- Design: dose 125 nL, time 70.5 hour; concentration not given beside the values
- MEASUREMENT CONDITIONS: HepG2 cells, read-out: Inhibition
Listed here: items and their measured cytotoxicity at 70.5 h.
Give a bare numeral; the unit % is implied.

Look over these answered cases.
In [3]: df
Out[3]:
                                   compound        observation_type  observed_measurement
0  COc1cccc(COC(C)C(=O)N(C)Cc2nnc3n2CCC3)c1 (configuration not stated)  cytotoxicity at 70.5 h                 -3.46
1  CCn1c(SCC(=O)N2CCOCC2)nc2cc(C)[nH]c2c1=O  cytotoxicity at 70.5 h                 0.779
2        COC(=O)CN(C(=O)c1ccco1)c1cccc(F)c1  cytotoxicity at 70.5 h                  16.3
3  CC(C)c1nc(CNC(C(=O)N2CCOCC2)C(C)C)no1 (configuration not stated)  cytotoxicity at 70.5 h                 -5.23
4   Cc1ocnc1C(=O)Nc1ccc(-c2nnc(N(C)C)o2)cc1  cytotoxicity at 70.5 h                 -3.15

Next item in the queue.
Query: Could you share which cytotoxicity at 70.5 h value was measured for `Cc1ccc(C(=O)N2CCn3cc(CN(C)Cc4ccco4)nc3C2)o1` ?
Result: 8.16

----------
- ASSAY NAME: Human HepG2 cell viability assay in 384 well format
- Format: toxicity, cell-based
- Design: dose 125 nL, time 70.5 hour; concentration not given beside the values
- MEASUREMENT CONDITIONS: HepG2 cells, read-out: Inhibition
OBSERVATION TYPE: cytotoxicity at 70.5 h (%)
Give a bare numeral; the unit % is implied.

Look over these answered cases.
>>> df
                                   compound        observation_type  unit_of_measure  observed_measurement
0  CC(=O)N1CCO[C@@H]2CN(S(=O)(=O)C3CC3)CC[C@@H]2C1  cytotoxicity at 70.5 h                %               -0.0787
1  c1cc(C2CC2)n2cnc(C3CN(Cc4nccs4)CCO3)c2c1 (configuration not stated)  cytotoxicity at 70.5 h                %                 -1.41
2  Cc1nc(O)cc(CN2C[C@H](NS(=O)(=O)N(C)C)[C@@H](C3CC3)C2)n1  cytotoxicity at 70.5 h                %                 -3.51
3  CN(CCc1ccccn1)C(=O)C(c1cccnc1)N1CCOCC1 (configuration not stated)  cytotoxicity at 70.5 h                %                 -1.97
4         Cc1cc(C2CCC2)nc(N(C)Cc2ncccc2C)n1  cytotoxicity at 70.5 h                %                  2.14

Query: Could you share which cytotoxicity at 70.5 h value was measured for `CCNc1ncc(C(=O)N[C@H]2CC[C@H](n3cnnc3)CC2)cn1` ?
Result: -1.33

Query: Could you share which cytotoxicity at 70.5 h value was measured for Cc1ccc(CNCCC(O)(c2nccn2C)C(F)(F)F)o1 (configuration not stated) ?
Result: -6.24

Query: Could you share which cytotoxicity at 70.5 h value was measured for O=c1[nH]nc(SCC2CCCO2)n1C1CC1 (configuration not stated) ?
Result: -6.11

Query: Could you share which cytotoxicity at 70.5 h value was measured for CCc1cnc(CN(C)C2CCN(CCS(C)(=O)=O)C2)o1 (configuration not stated) ?
Result: -6.45

Query: Could you share which cytotoxicity at 70.5 h value was measured for `O=C(c1ccc(O)nc1)N1CCC(Nc2cccnn2)CC1` ?
Result: -8.37

Query: Could you share which cytotoxicity at 70.5 h value was measured for `O=C1CC2(CCN(C(=O)c3cccc(Cl)c3)CC2)CN1` ?
Result: -7.17

Query: Could you share which cytotoxicity at 70.5 h value was measured for c1ccc2nc(NCC3(N4CCOCC4)CCSC3)cnc2c1 (configuration not stated) ?
Result: 28.5

Query: Could you share which cytotoxicity at 70.5 h value was measured for Cc1cc(C(=O)NCCC2CN(C)CCO2)c2cccc(C)c2n1 (configuration not stated) ?
Result: -11.4

Query: Could you share which cytotoxicity at 70.5 h value was measured for `CN1CCC2(C=C(C(=O)N3CCCC3)c3ccccc32)CC1` ?
Result: 1.49

Query: Could you share which cytotoxicity at 70.5 h value was measured for `C[C@@H]1CN(Cc2cc(C(F)(F)F)ccc2F)CC[C@@]1(O)C1CC1` ?
Result: -2.04

Query: Could you share which cytotoxicity at 70.5 h value was measured for `Cc1nc(CCN(C)C(=O)CN2CCCCCC2)no1` ?
Result: -9.68

Query: Could you share which cytotoxicity at 70.5 h value was measured for `Cn1cc(C[C@H]2[C@H](O)CCN2Cc2ccc(F)cc2)cn1` ?
Result: 4.14

Query: Could you share which cytotoxicity at 70.5 h value was measured for `NC(=O)Cn1cnc2nc3n(c2c1=O)CCC3` ?
Result: 16.5

Numbers sourced from ChEMBL document CHEMBL3507680.
